Molecular target: T1, human CRH receptor type 2 (human, UniProt Q13324 1-411)
T1 sequence (looked up): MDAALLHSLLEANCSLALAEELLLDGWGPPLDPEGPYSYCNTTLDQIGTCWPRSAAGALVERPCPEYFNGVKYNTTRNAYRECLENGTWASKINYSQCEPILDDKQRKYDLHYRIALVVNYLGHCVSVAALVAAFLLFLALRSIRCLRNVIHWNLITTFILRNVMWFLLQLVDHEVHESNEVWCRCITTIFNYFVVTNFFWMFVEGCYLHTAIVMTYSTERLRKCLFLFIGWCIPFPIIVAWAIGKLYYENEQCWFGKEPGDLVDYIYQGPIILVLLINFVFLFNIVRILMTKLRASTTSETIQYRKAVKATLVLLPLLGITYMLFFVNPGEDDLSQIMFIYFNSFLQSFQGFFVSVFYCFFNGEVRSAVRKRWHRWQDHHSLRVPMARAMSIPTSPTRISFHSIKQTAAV
Test: cell-based or functional assay
No end group written: not given here.
Log DR against h-SCP, cAMP vs 0.8 log10 ratio: less than gives rule met; not less than gives rule not met.

Example results:
{"binder": "TKFTLSLDVPTNIMNLLFNIAKCKNLRAQAAANAHLMAQI (NES-PEG (about 20 kDa) on Cys 23; C-terminal amide) [Pegylated Cys-variant CRHR2 peptide agonist (NES linker, PEG about 20 kDa), SEQ ID NO: 77]", "assigned-label": "rule not met"}
{"binder": "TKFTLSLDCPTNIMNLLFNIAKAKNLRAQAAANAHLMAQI-NH2 [Cys-variant CRHR2 peptide agonist, SEQ ID NO: 10]", "assigned-label": "rule not met"}
{"binder": "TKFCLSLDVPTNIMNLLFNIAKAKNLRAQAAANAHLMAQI-NH2 [Cys-variant CRHR2 peptide agonist, SEQ ID NO: 5]", "assigned-label": "rule met"}
{"binder": "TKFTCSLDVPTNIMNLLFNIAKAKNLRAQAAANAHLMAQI-NH2 [Cys-variant CRHR2 peptide agonist, SEQ ID NO: 6]", "assigned-label": "rule met"}

For the next question, use this binder.
Request: Item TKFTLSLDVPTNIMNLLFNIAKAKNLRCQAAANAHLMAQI-NH2 [Cys-variant CRHR2 peptide agonist, SEQ ID NO: 29] : Log DR against h-SCP, cAMP beneath 0.8 log10 ratio, strictly?
Result: rule met
